Where do these numbers come from? They come from patent US20220177587A1.

parental ratio reference
- testedSystem: human PD-L1 (human) (UniProt Q9NZQ7)
- Sequence (Q9NZQ7 19-290): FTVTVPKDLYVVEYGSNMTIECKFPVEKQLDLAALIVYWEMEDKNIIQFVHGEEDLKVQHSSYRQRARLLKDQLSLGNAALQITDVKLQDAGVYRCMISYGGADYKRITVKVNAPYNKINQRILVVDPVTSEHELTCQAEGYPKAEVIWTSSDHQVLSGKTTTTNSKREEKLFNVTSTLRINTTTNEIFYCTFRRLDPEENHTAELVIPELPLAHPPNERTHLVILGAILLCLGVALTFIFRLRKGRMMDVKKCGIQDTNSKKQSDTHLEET
- assayInfo: flow cytometry, Expi293F cells transfected with PD-L1
// no unit, no text: just the number

# binder, parental ratio
records = [
    ("CD80 K37E/F59S/L70Q/A91G/T120S/T130A ECD-Fc (SEQ ID NO 1397) (Fc fusion) VIHVTKEVKEVATLSCGHNVSVEELAQTRIYWQKEKEMVLTMMSGDMNIWPEYKNRTISDITNNLSIVIQALRPSDEGTYECVVLKYEKDGFKREHLAEVTLSVKADFPTPSISDFEVPSSNIRRIICSASGGFPEPHLSWLENGEELNAINTTVSQDPETELYAVSSKLDFNMTTNHSFMCLIEYGHLRVNQTFNWNTTKQEHFPDN", 0.08),
    ("CD80 V4M/L70Q/A91G/I118V/T120S/T130A/K169E ECD-Fc (Fc fusion) VIHMTKEVKEVATLSCGHNVSVEELAQTRIYWQKEKKMVLTMMSGDMNIWPEYKNRTIFDITNNLSIVIQALRPSDEGTYECVVLKYEKDGFKREHLAEVTLSVKADFPTPSISDFEVPSSNIRRIICSASGGFPEPHLSWLENGEELNAINTTVSQDPETELYAVSSELDFNMTTNHSFMCLIKYGHLRVNQTFNWNTTKQEHFPDN", 0.09),
]

Here is another binder to look at.
[ask] Any idea what parental ratio was measured for CD80 A91G/L102S ECD-Fc (Fc fusion) VIHVTKEVKEVATLSCGHNVSVEELAQTRIYWQKEKKMVLTMMSGDMNIWPEYKNRTIFDITNNLSIVILALRPSDEGTYECVVLKYEKDGFKREHLAEVTSSVKADFPTPSISDFEIPTSNIRRIICSTSGGFPEPHLSWLENGEELNAINTTVSQDPETELYAVSSKLDFNMTTNHSFMCLIKYGHLRVNQTFNWNTTKQEHFPDN ?
[reply] 0.08
